Hi! I'm sharing some IC50 results obtained with DDR1 (Homo sapiens, UniProt Q08345).
Sequence (Q08345 19-913): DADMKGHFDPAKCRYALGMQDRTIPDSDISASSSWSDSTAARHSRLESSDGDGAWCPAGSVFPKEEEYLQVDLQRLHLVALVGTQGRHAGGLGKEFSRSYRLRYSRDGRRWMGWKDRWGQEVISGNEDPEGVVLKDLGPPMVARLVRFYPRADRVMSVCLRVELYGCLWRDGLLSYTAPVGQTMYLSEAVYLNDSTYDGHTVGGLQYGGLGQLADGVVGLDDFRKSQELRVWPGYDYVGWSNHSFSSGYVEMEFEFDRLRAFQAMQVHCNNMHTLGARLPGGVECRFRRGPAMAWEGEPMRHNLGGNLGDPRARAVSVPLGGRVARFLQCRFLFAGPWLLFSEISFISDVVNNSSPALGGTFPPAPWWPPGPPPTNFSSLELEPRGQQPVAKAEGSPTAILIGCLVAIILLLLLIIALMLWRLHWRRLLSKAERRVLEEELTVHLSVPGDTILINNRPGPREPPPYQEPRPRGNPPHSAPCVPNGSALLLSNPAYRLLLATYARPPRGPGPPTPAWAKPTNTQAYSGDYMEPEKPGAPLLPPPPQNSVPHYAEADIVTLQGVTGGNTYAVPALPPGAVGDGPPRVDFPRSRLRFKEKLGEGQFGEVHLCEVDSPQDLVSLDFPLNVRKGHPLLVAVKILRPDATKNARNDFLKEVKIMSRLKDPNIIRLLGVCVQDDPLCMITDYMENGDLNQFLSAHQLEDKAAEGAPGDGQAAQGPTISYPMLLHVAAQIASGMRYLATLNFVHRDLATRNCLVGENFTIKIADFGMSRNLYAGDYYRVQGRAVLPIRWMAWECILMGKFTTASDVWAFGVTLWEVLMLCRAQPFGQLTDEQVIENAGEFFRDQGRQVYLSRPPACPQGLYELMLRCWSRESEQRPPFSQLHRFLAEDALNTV

Answered cases to consult:
Query (compound): O=C(Nc1cc(CN2CCOCC2)cc(C(F)(F)F)c1)c1csc2c1CCN(C(=O)c1cnn3ccncc13)C2 ; field requested: IC50
25 to 50 nM

Also CC(C)(C)c1cc(NC(=O)c2csc3c2CCN(Cc2cnc4[nH]ncc4c2)C3)no1 ?
< 25 nM

Also O=C(Nc1cncc(OC(F)(F)F)c1)c1csc2c1CCN(C(=O)c1cnn3ccncc13)C2 ?
< 25 nM

Also CC(C)(C)c1cc(NC(=O)c2csc3c2CCN(C(=O)c2cnc4ccccn24)C3)n(CCO)n1 ?
25 to 50 nM

Also CN(C)Cc1ccc(NC(=O)c2csc3c2CCN(C(=O)c2cnc4ccccn24)C3)cc1C(F)(F)F ?
25 to 50 nM

Also Cc1n[nH]c2ncc(CN3CCc4c(C(=O)Nc5cncc(C(F)(F)F)c5)csc4C3)cc12 ?
< 25 nM

Continuing:
Query (compound): O=C(Nc1cncc(C(F)(F)F)c1)c1csc2c1CCN(Cc1cnc3[nH]ncc3c1)C2 ; field requested: IC50
< 25 nM

Also CC(C)(C)c1cc(NC(=O)c2csc3c2CCN(C(=O)c2cnc4ccccn24)C3)n(CC(F)(F)F)n1 ?
25 to 50 nM

Also COCCOc1ccn2c(C(=O)N3CCc4c(C(=O)Nc5cccc(C(F)(F)F)c5)csc4C3)cnc2c1 ?
< 25 nM
